B1: EHEE_rd2_1257 (parent)
chain: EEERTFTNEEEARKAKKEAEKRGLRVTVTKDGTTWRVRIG

Variants of: B1
assay-remarks: folding stability dG (cDNA display proteolysis); higher = more stable
assay-context: PBS, room temperature
folding stability dG vs 2 kcal/mol: at or above is criterion met, below is criterion not met.

Recorded results for 5 variants are shown here.
G40S : criterion met
E18K : criterion not met
T29A : criterion not met
R22I : criterion not met
T7I : criterion not met

Test whether the variant "K30M" records folding stability dG of 2 kcal/mol or higher.
criterion not met

Subsequent entry: "E20M"
criterion not met
